system: DU-145; assay: NCI tumour cell line growth inhibition, 48 h
The source made the active and inactive calls. No stated cut-off is given here; in the data, active = GI50 up to about 1.1 µM and inactive = higher.
parameter measured: GI50

INSERT INTO measurements (compound, experimental_result) VALUES
  ('CC(CCOc1ccc2ccc(=O)oc2c1)C1=CC(=O)C(C)(C)O1 (stereo not given)', '2.39 µM (inactive)'),
  ('CCOC(=O)c1c2ccccc2n2c(N)c(C(N)=O)nnc12', '> 100 µM (inactive)'),
  ('CC(=O)Oc1ccc(-c2cc3ccccc3oc2=O)cc1OC(C)=O', '24.9 µM (inactive)'),
  ('COc1ccc(C2CC(=O)Oc3ccccc3O2)cc1 (stereo not given)', '> 100 µM (inactive)'),
  ('O=C(NCCC1CN(S(=O)(=O)C(F)(F)F)c2ccccc21)OCc1ccccc1 (stereo not given)', '> 100 µM (inactive)'),
  ('CCOC(=O)/C(=C\NC(N)=S)C(=O)c1ccccc1', '> 100 µM (inactive)'),
  ('CC(C)(C)c1cc2c(OC/C=C/c3ccccc3)c(c1)Cc1cc(C(C#N)(OC/C=C/c3ccccc3)OC/C=C/c3ccccc3)cc(c1OC/C=C\c1ccccc1)Cc1cc(C(C)(C)C)cc(c1OC/C=C/c1ccccc1)Cc1cc(C(C#N)(OC/C=C\c3ccccc3)OC/C=C/c3ccccc3)cc(c1OC/C=C\c1ccccc1)C2 (stereo not given)', '> 100 µM (inactive)'),
  ('CC1C2Cc3ccc(O)cc3C1(C)CCN2C (stereo not given)', '> 100 µM (inactive)'),
  ('CCCCCCCCCCCCCC(=O)OC(/C=C/C(C)C)C(O)C(O)C(OC)C(=O)NC1CCCCNC1=O (stereo not given)', '> 10 µM (inactive)');

We next turn to a different compound, shown below.
Data request: Would you kindly share the measured GI50 for `Cn1cnc2c(sc3nc4ccccc4n32)c1=N` ?
Data returned: > 100 µM (inactive)

* * *

tested on: BT-549; experiment: NCI tumour cell line growth inhibition, 48 h
Active and inactive are the calls of the source. Rule as the data show it: active = GI50 up to about 1.1 µM and inactive = higher. Square brackets hold non-standard residues; d marks the D form. Peptide text beside a SMILES is read from it. * marks the point of attachment. Bn2Val = CC(C)[C@@H](C(=O)*)N(Cc1ccccc1)Cc1ccccc1; NH(3,4-diMeO-benzyl) = COc1ccc(CN*)cc1OC; NMeV = CN[C@H](C(=O)O)C(C)C; dNMeA = CN[C@H](C)C(=O)O
parameter measured: GI50

Please review the following examples before continuing.
INSERT INTO assay_data (compound, subject_of_test, parameter_measured, experimental_result) VALUES
  ('COc1ccc(CNC(=O)[C@@H](C)N(C)C(=O)[C@@H]2CCCN2C(=O)[C@H](C(C)C)N(C)C(=O)[C@@H](NC(=O)[C@H](C(C)C)N(Cc2ccccc2)Cc2ccccc2)C(C)C)cc1OC (Bn2Val-V[NMeV]P[dNMeA]-{NH(3,4-diMeO-benzyl)})', 'BT-549', 'GI50', '7.69 µM (inactive)'),
  ('COc1cc(C2c3cc4c(cc3OC3(OC)COC(=O)C23)OCO4)cc(OC)c1OC(C)=O (stereo not drawn)', 'BT-549', 'GI50', '5 µM (inactive)');

Data request: So what's the measured GI50 for this one? CCN1CCC(O)(/C=C/c2ccc(OC)cc2)C(C(=O)/C=C/c2ccc(OC)cc2)C1 (stereo not drawn)
Data returned: 15.5 µM (inactive)

* * *

system: HT-29; test: NCI tumour cell line growth inhibition, 48 h
The source made the active and inactive calls. Rule as the data show it: active = GI50 up to about 1.1 µM and inactive = higher.
Pick one: yes for active, no for inactive

INSERT INTO assay_data (compound, class) VALUES
  ('CC1=NN(c2ccc(C)cc2)C2(C1)SCC(=O)N2c1nc2ccccc2s1 (centres undefined)', 'no'),
  ('O=C1/C(=N\O)S(=O)(=O)c2ccccc21', 'no'),
  ('O=c1[nH]c2ccc(CC(=S)N3CCN(c4ccccc4)CC3)cc2s1', 'no'),
  ('O=c1[nH]c2cc([N+](=O)[O-])c(N/N=C/c3ccc(Cl)cc3Cl)c([N+](=O)[O-])c2[nH]1', 'no'),
  ('CCOC(=O)/C(=C\NC(N)=S)C(=O)c1ccccc1', 'no');

Data request: Check the results log: what was the call for `c1cc(-c2ccc(-c3nc4ccc(C5=NCCN5)cc4s3)s2)ccc1C1=NCCN1` ?
Data returned: yes

Data request: Just curious, what result did Cc1ccc(NC(=O)CC2C(=O)Nc3ccccc3[S+]2[O-])c(C)c1 (centres undefined) get here?
Data returned: no

Data request: Could you check what this test reported for `O=C1C(c2c(O)[nH]c3ccc(Br)cc23)=Nc2ccc(Br)cc21` ?
Data returned: no

Data request: Dear all, I need the recorded test outcome for COC(=O)C(/C(=N/NC(=O)c1ccncc1)C(=O)Nc1ccccc1OC)c1nc2ccc(Cl)cc2nc1O (centres undefined) , thank you.
Data returned: no

Data request: How was `O=c1c2c(no[n+]2[O-])c2ccccc2n1-c1ccccc1` classified in this test?
Data returned: no

Data request: Which outcome was assigned to `O=C(N1CCN(c2ccccc2)CC1)N(C(=O)C1(c2ccc(Cl)cc2)CCCC1)S(=O)(=O)c1ccccc1` in this test?
Data returned: no

Data request: // outcome(item) with item = O=C1CC(NC(=O)C(F)(F)F)c2c(Br)sc(N3CCC(c4ccccc4)CC3)c21 (centres undefined)
Data returned: no

Data request: // return assay outcome for `CC(=O)c1cc(S(=O)(=O)c2ccc(O)c(C(C)=O)c2)ccc1O`
Data returned: no

Data request: Record lookup: outcome of this test for `COc1ccc(/C=C2\CCc3cc(OC)c(OC)cc3C2=O)cc1` ?
Data returned: no

Data request: Please indicate how the test categorized `COc1cc(CCNC2=CC(=O)c3nc[nH]c3C2=O)ccc1O` .
Data returned: no

Data request: Hi, sorry to bother you, what did the test record for `CN(C)CCC(/C=C/c1ccccc1)=N\Nc1ccc(Cl)cc1` ?
Data returned: no

* * *

system: HOP-62; assay: NCI tumour cell line growth inhibition, 48 h
Active and inactive are the calls of the source. Cut-off read from the data, not from the text of the source: active = GI50 up to about 1.1 µM and inactive = higher.
I would appreciate it if you answered using one of these outcomes: y for active, n for inactive

INSERT INTO results (molecule, class) VALUES
  ('COc1cc(/C=C2\N=C(c3ccccc3)N(c3nc4ccc(Sc5ccccc5)cc4[nH]3)C2=O)cc(OC)c1OC', 'n'),
  ('COc1ccc(-c2c(C(C)=O)c(C)n(C3OC(COC(C)=O)C(OC(C)=O)C(OC(C)=O)C3OC(C)=O)c(=S)c2C#N)cc1 (centres undefined)', 'n'),
  ('O=[N+]([O-])c1ccc(Oc2c(Cl)cc(S(=O)(=O)N/C(=N\O)Nc3ccc(Cl)cc3)cc2Cl)c(Cl)c1', 'n'),
  ('COC(=O)c1cc2c(c(C(=O)OC)c1O)C(=O)C=CC2=O', 'n');

Data request: Called result for `Cc1noc2cccc(OCc3ccccc3)c12`
Data returned: n

Data request: Hello, I am checking results. What call was entered for N#C[C@H](OC1OC(COC2OC(CO)C(O)C(O)C2O)C(O)C(O)C1O)c1ccccc1 (some centres undefined) ?
Data returned: n

Data request: Please share the test call associated with CC(C)CC(NC=O)C(=O)NC(Cc1ccccc1)NC(=O)CNC(=O)C(C)NC(=O)C(N)Cc1ccc(O)cc1 (centres undefined) .
Data returned: n

Data request: Which outcome was entered for the molecule COc1cc2c(cc1O)CCN[C@@]21CS[C@H]2c3c(OC(C)=O)c(C)c4c(c3C(COC1=O)N1C2C2NC(Cc3cc(C)c(OC)c(O)c32)[C@@H]1O)OCO4 (some centres undefined) in this test?
Data returned: y

Data request: Outcome logged for CCc1cccc(C)c1NC(=O)CC1C(=O)Nc2ccccc2[S+]1[O-] (centres undefined) in this assay:
Data returned: n

* * *

tested on: SF-539; experiment: NCI tumour cell line growth inhibition, 48 h
Active and inactive are the calls of the source. Cut-off read from the data, not from the text of the source: active = GI50 up to about 1.1 µM and inactive = higher.
# Lookup of reported GI50 keyed by entry

Past entries and their recorded results:
INSERT INTO assay_data (compound, experimental_result) VALUES
  ('C/C(=N/NC(=S)N1CCCCC1)c1ccccc1O', '> 100 µM (inactive)'),
  ('COc1cc2c(c3c1c(=O)c1ccccc1n3C)C=CC(C)(C)O2', '37.8 µM (inactive)'),
  ('COC(=O)c1ccc(-c2nc(C#N)c(N)o2)cc1', '> 100 µM (inactive)');

Data request: Fill in the blank: the reported GI50 of `O=S(=O)(c1ccccc1)n1cnc(CCc2ccccc2)n1` is ____.
Data returned: > 100 µM (inactive)

* * *

Let's go through some recorded GI50 values for HCT-15 together.
Kindly provide the numeric value in µM only, without the unit symbol.

INSERT INTO results (compound, parameter_measured, experimental_result) VALUES
  ('N#Cc1ccc(C2Oc3ccc(Cl)cc3C=C2[N+](=O)[O-])cc1 (centres undefined)', 'GI50', 1.07),
  ('COc1cc(/C=C2\N=C(c3ccccc3)N(c3nc4ccc(Sc5ccccc5)cc4[nH]3)C2=O)cc(OC)c1OC', 'GI50', 21.1),
  ('S=C(N/N=C/c1ccco1)NC12CC3CC(CC(C3)C1)C2', 'GI50', 47.4),
  ('Cc1nn2c(=O)c([N+](=O)[O-])c(/C=C/c3ccccc3)nc2s1', 'GI50', 3.08),
  ('Cc1ccc2[nH]c(=N/c3ccccc3C)/c(=N\c3ccccc3C)[nH]c2c1', 'GI50', 22.3),
  ('CN(C)CCC(/C=C/c1ccccc1)=N\Nc1ccc(Cl)cc1', 'GI50', 3.01);

Data request: Give recorded GI50 with HCT-15 for the following compound: `COc1cc([C@@H]2c3cc4c(cc3[C@@H](Nc3ccc(/N=C\c5ccc(C(=O)O[C@@H](C(=O)O[C@H]6C[C@@]7(O)[C@@H](OC(=O)c8ccccc8)[C@@H]8[C@]9(OC(C)=O)CO[C@@H]9C[C@H](O)[C@@]8(C)C(=O)[C@H](OC(C)=O)C(=C6C)C7(C)C)[C@@H](NC(=O)c6ccccc6)c6ccccc6)cc5)cc3)[C@H]3COC(=O)[C@H]23)OCO4)cc(OC)c1O`
Data returned: 7.96

Data request: Field: GI50 (HCT-15). Entry: C[C@@H]1CC[C@@]2(C)[C@H](C)/C(=C\COC(=O)/C=C/c3ccc(O)c(O)c3)CC[C@@]12C [NAVICULYL CAFFEATE]
Data returned: 4.1

Data request: Param readout = GI50; param system = HCT-15; param query = `Cn1c(N/N=C/c2ccccc2)nc(-c2ccc([N+](=O)[O-])cc2)c(C#N)c1=O` ; response: value
Data returned: 30.5

Data request: Request: GI50, test system HCT-15, entry `Oc1cc2c3c(c1)c1cc4c(cc1c[n+]3CC2)OCO4`
Data returned: 13.6

Data request: Request - read-out GI50 | tested on HCT-15 | compound CC1CC[P+](c2ccccc2)(c2ccccc2)c2c1ccc1ccccc21 (centres undefined)
Data returned: 31.9
